Assay: TOX21_p53_BLA_p4_viability: Viability Assessment in the Tox21 HCT-116 p53 Agonism Beta-lactamase Assay, Phase 4 (AID 2283597);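 further: hits lower the luminescence signal meaning cytotoxicity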
Inconclusive results are not listed. The source made the active and inactive calls. How the source made its calls: active means hit-call score of the fitted dose curve at least 0.9, where 1 is the maximum; inconclusive means response in the unintended direction; inactive means score below 0.9.
Form entry, call: pick from active, inactive

Before answering, review these 8 worked examples.
Prompt line: Hi, do you know how COC(=O)CSc1cc(N=c2sc(=O)n3n2CCCC3)c(F)cc1Cl came out in this test?
Response line: inactive

Prompt line: Another molecule: c1ccc(Nc2ccccc2)cc1
Response line: inactive

Prompt line: Another molecule: CCCCC(CC)COC(=O)c1ccccc1C(=O)O (configuration not stated)
Response line: inactive

Prompt line: Another molecule: CC(C)(C)[C@@H](O)[C@@H](Cc1ccc(Cl)cc1)n1cncn1
Response line: inactive

Prompt line: Another molecule: COC(=O)c1ccccc1C(=O)O
Response line: inactive

Prompt line: Another molecule: CC1(C)C(C=C(Cl)Cl)C1C(=O)OCc1cccc(Oc2ccccc2)c1 (configuration not stated)
Response line: inactive

Prompt line: Another molecule: CCN(Cc1c(F)cccc1Cl)c1c([N+](=O)[O-])cc(C(F)(F)F)cc1[N+](=O)[O-]
Response line: active

Prompt line: Another molecule: CC(=O)S[C@@H]1CC2=CC(=O)CC[C@]2(C)[C@H]2CC[C@@]3(C)[C@@H](CC[C@@]34CCC(=O)O4)[C@H]12
Response line: inactive

***
Prompt line: Hi, do you know how CCOC(=O)c1ccc(O)cc1 came out in this test?
Response line: inactive

Prompt line: Another molecule: C[C@]12CC[C@@H]3c4ccc(O)cc4C[C@@H](CCCCCCCCCS(=O)CCCC(F)(F)C(F)(F)F)[C@H]3[C@@H]1CC[C@@H]2O (some centres not stated)
Response line: inactive

Prompt line: Another molecule: CCCCC(CC)CN1C(=O)C2C3C=CC(C3)C2C1=O (configuration not stated)
Response line: active

Prompt line: Another molecule: C#C[C@]1(O)CC[C@H]2[C@@H]3CCC4=CC(=O)CC[C@@H]4[C@H]3CC[C@@]21CC
Response line: inactive

Prompt line: Another molecule: O=C(O)C1(C(=O)Nc2ccc(Cl)cc2Cl)CC1
Response line: inactive

Prompt line: Another molecule: N[C@@H](Cc1cc(I)c(Oc2ccc(O)c(I)c2)c(I)c1)C(=O)O
Response line: inactive

Prompt line: Another molecule: CSC(=O)c1cccc2nnsc12
Response line: inactive

Prompt line: Another molecule: CCOC(=O)COc1cc(-n2ncc(C(F)(F)F)c(C)c2=O)c(F)cc1Cl
Response line: inactive

Prompt line: Another molecule: CCCN(CCC)C(=O)SCC
Response line: inactive

Prompt line: Another molecule: CCCCOC(=O)C(C)Oc1ccc(Oc2ccc(C(F)(F)F)cn2)cc1 (configuration not stated)
Response line: inactive
